Source of measurements: paper PMC9661473

- tested.system: T1, RYE tripeptide (thrombin loop fragment) (UniProt P00734 433-435)
- T1 chain: RYE
- protocol.details: MST; 100 mM KCl, 25 C; MST: 200 nM FAM-oligo; 25 mM PBS pH 7.05, 100 mM KCl (DNA TA 25 C, RNA TA 40 C) or 25 mM K-phosphate pH 7.05, 100 mM KCl (2N3M, 25 C), Hill fit; NMR: 500 uM DNA TA, 25 mM K-phosphate pH 7.4, 100 mM KCl, 10% D2O, 298 K
- condition: label: 5'-FAM; intramolecular G-quadruplex
recorded.endpoint: pKd
// pKd: -log10(molar conc.)

Form: binder = GGTTGGTGTGGTTGG (structured_DNA) [DNA TA (FAM)] ; pKd = 4.28
